- TEST_SYSTEM: Human DP1 receptor (Homo sapiens (Human), UniProt Q13258)
- Sequence (Q13258 whole entry): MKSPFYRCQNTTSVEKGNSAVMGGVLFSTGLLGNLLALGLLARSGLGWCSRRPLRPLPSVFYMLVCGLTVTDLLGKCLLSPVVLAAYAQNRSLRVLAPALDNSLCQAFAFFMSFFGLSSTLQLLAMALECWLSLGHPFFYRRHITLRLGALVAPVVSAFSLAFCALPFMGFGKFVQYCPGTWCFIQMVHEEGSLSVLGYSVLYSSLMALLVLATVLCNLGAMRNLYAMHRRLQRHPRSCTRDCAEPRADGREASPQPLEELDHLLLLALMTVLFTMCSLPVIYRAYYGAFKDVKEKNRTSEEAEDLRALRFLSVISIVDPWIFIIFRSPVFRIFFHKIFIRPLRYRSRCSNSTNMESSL
- EXPERIMENT: Human DP1 inhibitory activity in DP1-expressing cell (PGD2-induced cAMP)
- Assay type: cell-based
- ASSAY_SETUP: category of cAMP IC50, human DP1 receptor expressing Jurkut cell
pIC50: −log10 of the molar value.
Known pIC50 of a selection of molecules

Example molecules with recorded pIC50:
# MOLECULE, TEST_SYSTEM, pIC50
measured = [
    ("CCOc1ccc(S(=O)(=O)N2C[C@@H](C)[C@@H](n3nc(C(C)(OC)C(=O)O)c4ccccc43)C2)cc1 (stereo partly drawn) [Compound I-286]", "Human DP1 receptor (Homo sapiens (Human), UniProt Q13258)", "> 7.00"),
    ("COCCOc1ccc(S(=O)(=O)N2C[C@@H](C)[C@@H](n3nc(CC(=O)O)c4ccccc43)C2)cc1", "Human DP1 receptor (Homo sapiens (Human), UniProt Q13258)", "5.30 to 7.00"),
    ("CC#CCOC[C@H]1C[C@@H](n2nc(CC(=O)O)c3ccc(F)cc32)CN1S(=O)(=O)c1ccc(OC(C)C)cc1", "Human DP1 receptor (Homo sapiens (Human), UniProt Q13258)", "5.30 to 7.00"),
    ("CC(C)Oc1ccc(S(=O)(=O)N2C[C@H](n3nc(CC(=O)O)c4ccc(F)cc43)C[C@@H]2c2ccccn2)cc1 [Compound I-358]", "Human DP1 receptor (Homo sapiens (Human), UniProt Q13258)", "5.30 to 7.00"),
]

Ask: I would be grateful if you could share the reported pIC50 for CC(C)Oc1ccc(S(=O)(=O)N2C[C@H](n3nc(CC(=O)O)c4ccccc43)[C@@](C)(O)C2)cc1 .
Result: 5.30 to 7.00

Ask: What would you report for CC(C)Oc1ccc(S(=O)(=O)N2C[C@@H](C)[C@H](n3nc(CC(=O)O)c4ccccc43)C2)cc1 ?
Result: 5.30 to 7.00

Ask: What would you report for CC(C)Oc1ccc(S(=O)(=O)N2C[C@@H](C)[C@@H](n3nc(CC(=O)O)c4cccc(F)c43)C2)cc1 ?
Result: 5.30 to 7.00

Ask: What would you report for CCOc1ccc(S(=O)(=O)N2C[C@@H](C)[C@@H](n3nc(CC(=O)O)c4ccc(C#N)cc43)C2)cn1 ?
Result: 5.30 to 7.00

###

- TEST_SYSTEM: CRTH2 (Homo sapiens (Human), UniProt Q9Y5Y4)
- Sequence (Q9Y5Y4 whole entry): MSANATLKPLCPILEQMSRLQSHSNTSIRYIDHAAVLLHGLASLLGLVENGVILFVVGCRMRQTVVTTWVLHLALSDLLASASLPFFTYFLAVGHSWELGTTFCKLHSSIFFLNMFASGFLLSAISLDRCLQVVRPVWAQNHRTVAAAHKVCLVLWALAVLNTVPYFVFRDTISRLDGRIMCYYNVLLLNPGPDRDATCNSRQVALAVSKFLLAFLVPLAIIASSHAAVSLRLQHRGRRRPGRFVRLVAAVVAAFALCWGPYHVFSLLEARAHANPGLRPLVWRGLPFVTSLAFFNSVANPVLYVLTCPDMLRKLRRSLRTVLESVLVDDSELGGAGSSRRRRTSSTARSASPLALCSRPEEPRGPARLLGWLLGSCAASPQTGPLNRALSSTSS
- EXPERIMENT: CRTH2 receptor binding inhibitory activity ([3H]-PGD2 displacement, membranes of CRTH2-expressing K562 cell)
- ASSAY_SETUP: CRTH2 receptor binding, [3H]-PGD2 displacement, membrane of CRTH2-expressing K562 cell; categorized AAAA/AAA; read-out: Ki
pKi: −log10 of the molar value.
MEASURE_NAME: pKi

Example compounds with recorded pKi:
# COMPOUND, EXPERIMENTAL_VALUE
measured = [
    ("CC(C)Oc1ccc(S(=O)(=O)N2C[C@H](n3nc(CC(=O)O)c4ccc(F)cc43)C[C@H]2CC#N)cc1 [Compound I-14]", "> 7.00"),
    ("C[C@@H]1CN(S(=O)(=O)c2ccc(OC(F)F)cc2)C[C@@H]1n1nc(CC(=O)O)c2ccc(Cl)cc21 [Compound I-134]", "> 7.00"),
    ("COc1ccccc1OC[C@H]1C[C@@H](n2nc(CC(=O)O)c3ccc(F)cc32)CN1S(=O)(=O)c1ccc(OC(C)C)cc1 [Compound I-344]", "5.30 to 7.00"),
    ("CCOc1ccc(S(=O)(=O)N2C[C@@H](C)[C@@H](n3nc(CC(=O)O)c4ccc(C5CCCCC5)cc43)C2)cc1 [Compound I-223]", "> 7.00"),
    ("CCOc1ccc(S(=O)(=O)N2C[C@@H](C)[C@@H](n3nc(CC(=O)O)c4ccccc43)C2)c(/C=C/c2ccccc2)c1 [Compound I-185]", "> 7.00"),
    ("CC[C@H]1C[C@@H](n2nc(CC(=O)O)c3ccc(F)cc32)CN1S(=O)(=O)c1ccc(OC(C)C)cc1 [Compound I-103]", "> 7.00"),
    ("CCOc1ccc(S(=O)(=O)N2C[C@@H](C)[C@@H](n3nc(CC(=O)O)c4ccccc43)C2)c(Br)c1 [Compound I-216]", "> 7.00"),
    ("C[C@@H]1CN(S(=O)(=O)c2ccc(OCCOC(C)(C)C)cc2)C[C@@H]1n1nc(CC(=O)O)c2ccccc21 [Compound I-193]", "5.30 to 7.00"),
]

Ask: So what pKi did CC(C)Oc1ccc(S(=O)(=O)N2C[C@H](n3nc(CC(=O)O)c4ccc(F)cc43)C[C@H]2c2ccccc2)cc1 [Compound I-359] get with CRTH2 (Homo sapiens (Human), UniProt Q9Y5Y4)?
Result: > 7.00

Ask: What would you report for CCc1ccc(S(=O)(=O)N2C[C@@H](C)[C@@H](n3nc(CC(=O)O)c4ccc(Cl)cc43)C2)cc1 [Compound I-141] ?
Result: > 7.00

Ask: What would you report for CCOc1ccc(S(=O)(=O)N2C[C@@H](C)[C@@H](n3nc(CC(=O)O)c4ccccc43)C2)c(CCCOC)c1 [Compound I-183] ?
Result: > 7.00

Ask: What would you report for CCOc1ccc(S(=O)(=O)N2C[C@@H](C)[C@@H](n3nc(CC(=O)O)c4ccc(N5CCCC5)cc43)C2)cn1 [Compound I-222] ?
Result: 5.30 to 7.00
